assay target: Carbonic anhydrase 9 (Homo sapiens)
assay method text: Inhibition of recombinant human carbonic anhydrase 9 assessed as inhibition of CO2 hydration preincubated for 15 mins prior to testing by phenol red based stopped-flow assay
measured quantity: pKi
// pKi is dimensionless: -log10 of concentration (M)

Cc1ccc(S(=O)(=O)C/C(=N\Nc2ccc(S(N)(=O)=O)cc2)c2ccccc2)cc1 7.40
NS(=O)(=O)c1ccc(N/N=C(\CS(=O)(=O)c2ccccc2)c2ccc(F)cc2)cc1 8.12
Cc1ccc(S(=O)(=O)C/C(=N\Nc2ccc(S(N)(=O)=O)cc2)c2ccc(Cl)cc2)cc1 8.06
Cc1ccc(/C(CS(=O)(=O)c2ccccc2)=N/Nc2ccc(S(N)(=O)=O)cc2)cc1 7.44
Cc1ccc(/C(CS(=O)(=O)c2ccc(C)cc2)=N/Nc2ccc(S(N)(=O)=O)cc2)cc1 8.28

Endpoint output: pKi of "NS(=O)(=O)c1ccc(N/N=C(\CS(=O)(=O)c2ccccc2)c2ccc(-c3ccccc3)cc2)cc1" . Value?
6.88

Endpoint output: pKi of "Cc1ccc(S(=O)(=O)C/C(=N\Nc2ccc(S(N)(=O)=O)cc2)c2ccc(Br)cc2)cc1" . Value?
7.25

Endpoint output: pKi of "NS(=O)(=O)c1ccc(N/N=C(\CS(=O)(=O)c2ccccc2)c2ccc([N+](=O)[O-])cc2)cc1" . Value?
7.15
